# Measurement Parameters: siRNA; further: test system not given here
HELM strings list units from the 5' end as sugar, base in round brackets, then linkage (d deoxyribose, r ribose, m 2'-O-methyl, p phosphodiester). Strings are as the collection lists them, not checked against the first reports. ss, as = sense and antisense strand; [lna] = locked nucleic acid (LNA)
Here, each record is paired with measured target mRNA knockdown data.
Observable: target mRNA knockdown

Substance	Observable	Result
RNA1{r(U)p.r(C)p.r(U)p.r(C)p.r(G)p.r(U)p.r(A)p.r(A)p.r(G)p.r(G)p.r(A)p.r(C)p.r(G)p.r(A)p.r(A)p.r(A)p.r(C)p.r(G)p.r(A)p.r(T)p.r(T)}|RNA2{r(U)p.r(C)p.r(G)p.r(U)p.r(U)p.r(U)p.r(C)p.r(G)p.r(U)p.r(C)p.r(C)p.r(U)p.m(U)p.r(A)p.r(C)p.r(G)p.r(A)p.r(G)p.r(A)p.r(T)p.r(T)}$$$RNA1{StrandType:ss}|RNA2{StrandType:as}$	target mRNA knockdown	55%
RNA1{r(A)p.r(U)p.r(C)p.r(U)p.r(G)p.r(A)p.r(A)p.r(G)p.r(A)p.r(A)p.r(G)p.r(G)p.r(A)p.r(G)p.r(A)p.r(A)p.r(A)p.r(A)p.r(A)p.d(T)p.d(T)}|RNA2{[lna](T)p.r(U)p.r(U)p.r(U)p.r(U)p.r(C)p.r(U)p.r(C)p.r(C)p.r(U)p.r(U)p.r(C)p.r(U)p.r(U)p.r(C)p.r(A)p.r(G)p.r(A)p.r(U)p.[lna](T)p.[lna](T)}$$$RNA1{StrandType:ss}|RNA2{StrandType:as}$	target mRNA knockdown	45%
RNA1{r(A)p.r(G)p.r(A)p.r(G)p.r(A)p.r(G)p.r(G)p.r(U)p.r(G)p.r(G)p.r(A)p.r(G)p.r(G)p.m(U)p.r(A)p.r(U)p.r(C)p.r(U)p.r(C)p.r(T)p.r(T)}|RNA2{r(G)p.r(A)p.r(G)p.r(A)p.m(U)p.r(A)p.r(C)p.r(C)p.r(U)p.r(C)p.r(C)p.r(A)p.r(C)p.r(C)p.r(U)p.r(C)p.r(U)p.r(C)p.r(U)p.r(T)p.r(T)}$$$RNA1{StrandType:ss}|RNA2{StrandType:as}$	target mRNA knockdown	90%

----------
# Measurement Parameters: siRNA
HELM strings list units from the 5' end as sugar, base in round brackets, then linkage (d deoxyribose, r ribose, m 2'-O-methyl, p phosphodiester). Strings are as the collection lists them, not checked against the first reports. ss, as = sense and antisense strand; [fl2r] = 2'-fluoro

Substance	Units Symbol	target mRNA knockdown
RNA1{m(A)p.r(C)p.m(C)p.r(G)p.m(A)p.r(C)p.m(G)p.r(A)p.m(U)p.r(U)p.m(C)p.r(U)p.m(U)p.r(C)p.m(U)p.r(A)p.m(C)p.r(U)p.m(C)p.r(T)p.r(T)}|RNA2{r(G)p.r(A)p.r(G)p.r(U)p.r(A)p.r(G)p.r(A)p.r(A)p.r(G)p.r(A)p.r(A)p.r(U)p.r(C)p.r(G)p.r(U)p.r(C)p.r(G)p.r(G)p.r(U)p.r(T)p.r(T)}$$$RNA1{StrandType:ss}|RNA2{StrandType:as}$	%	42
RNA1{r(A)p.r(A)p.r(C)p.r(C)p.[fl2r](C)p.r(A)p.r(C)p.r(C)p.r(A)p.[fl2r](C)p.r(A)p.r(G)p.r(C)p.[fl2r](U)p.r(A)p.r(G)p.r(A)p.r(A)p.r(C)p.r(U)p.r(U)}|RNA2{r(G)p.r(U)p.r(U)p.r(C)p.[fl2r](U)p.r(A)p.r(G)p.r(C)p.[fl2r](U)p.r(G)p.[fl2r](U)p.r(G)p.r(G)p.[fl2r](U)p.r(G)p.r(G)p.r(G)p.r(U)p.r(U)p.r(U)p.r(U)}$$$RNA1{StrandType:ss}|RNA2{StrandType:as}$	%	79
RNA1{r(U)p.r(U)p.r(U)p.m(G)p.r(A)p.r(U)p.m(C)p.r(A)p.r(G)p.r(C)p.r(G)p.r(G)p.r(A)p.r(G)p.r(A)p.r(C)p.r(U)p.r(C)p.r(G)p.r(T)p.r(T)}|RNA2{r(C)p.r(G)p.r(A)p.r(G)p.r(U)p.r(C)p.r(U)p.r(C)p.r(C)p.r(G)p.r(C)p.r(U)p.r(G)p.r(A)p.r(U)p.r(C)p.r(A)p.r(A)p.r(A)p.r(T)p.r(T)}$$$RNA1{StrandType:ss}|RNA2{StrandType:as}$	%	82

----------
# Measurement Parameters: siRNA
HELM strings list units from the 5' end as sugar, base in round brackets, then linkage (d deoxyribose, r ribose, m 2'-O-methyl, p phosphodiester). Strings are as the collection lists them, not checked against the first reports. ss, as = sense and antisense strand; [hna] = hexitol nucleic acid; [s4r] = 4'-thioribose
target mRNA knockdown under 80% gets true (1), anything at or over 80% gets false (0).

Substance	Classification
RNA1{r(G)p.r(C)p.r(G)p.r(A)p.r(G)p.m(C)p.r(A)p.r(G)p.r(A)p.r(G)p.r(A)p.r(A)p.r(U)p.r(C)p.m(U)p.r(A)p.r(C)p.r(C)p.r(U)p.r(T)p.r(T)}|RNA2{r(A)p.r(G)p.r(G)p.m(U)p.r(A)p.r(G)p.r(A)p.r(U)p.r(U)p.r(C)p.r(U)p.r(C)p.m(U)p.r(G)p.r(C)p.r(U)p.r(C)p.r(G)p.r(C)p.r(T)p.r(T)}$$$RNA1{StrandType:ss}|RNA2{StrandType:as}$	false (0)
RNA1{r(G)p.r(A)p.r(C)p.r(G)p.[hna](U)p.r(A)p.r(A)p.[hna](A)p.r(C)p.r(G)p.[hna](G)p.r(C)p.r(C)p.[hna](A)p.r(C)p.r(A)p.r(A)p.r(G)p.r(U)p.[hna](U)p.d(T)}|RNA2{r(A)p.[hna](C)p.r(U)p.r(U)p.r(G)p.r(U)p.r(G)p.r(G)p.r(C)p.r(C)p.r(G)p.r(U)p.r(U)p.r(U)p.r(A)p.r(C)p.r(G)p.[hna](U)p.[hna](C)p.[hna](G)p.d(T)}$$$RNA1{StrandType:ss}|RNA2{StrandType:as}$	true (1)
RNA1{m(A)p.r(U)p.m(C)p.r(G)p.m(U)p.r(C)p.m(G)p.r(U)p.m(C)p.r(A)p.m(G)p.r(G)p.m(G)p.m(U)p.r(A)p.m(A)p.r(G)p.m(G)p.r(U)p.r(T)p.r(T)}|RNA2{r(A)p.r(C)p.r(C)p.r(U)p.r(U)p.r(A)p.r(C)p.r(C)p.r(C)p.r(U)p.r(G)p.r(A)p.r(C)p.r(G)p.m(A)p.r(C)p.m(G)p.r(A)p.m(U)p.r(T)p.r(T)}$$$RNA1{StrandType:ss}|RNA2{StrandType:as}$	true (1)
RNA1{[s4r](C)p.[s4r](G)p.r(U)p.r(A)p.r(C)p.r(G)p.r(C)p.r(G)p.r(G)p.r(A)p.r(A)p.r(U)p.r(A)p.r(C)p.r(U)p.r(U)p.r(C)p.[s4r](G)p.[s4r](A)p.r(T)p.r(T)}|RNA2{r(U)p.r(C)p.r(G)p.r(A)p.r(A)p.r(G)p.r(U)p.r(A)p.r(U)p.r(U)p.r(C)p.r(C)p.r(G)p.r(C)p.r(G)p.r(U)p.r(A)p.r(C)p.r(G)p.r(T)p.r(T)}$$$RNA1{StrandType:ss}|RNA2{StrandType:as}$	false (0)
RNA1{r(A)p.r(C)p.r(C)p.r(G)p.r(A)p.r(C)p.r(G)p.r(A)p.r(U)p.r(U)p.r(C)p.r(U)p.r(U)p.r(C)p.r(U)p.r(A)p.r(C)p.r(U)p.r(C)p.r(T)p.r(T)}|RNA2{r(G)p.r(A)p.r(G)p.m(U)p.r(A)p.r(G)p.r(A)p.r(A)p.r(G)p.r(A)p.r(A)p.r(U)p.r(C)p.r(G)p.r(U)p.r(C)p.r(G)p.r(G)p.r(U)p.r(T)p.r(T)}$$$RNA1{StrandType:ss}|RNA2{StrandType:as}$	true (1)
RNA1{r(C)p.r(C)p.r(U)p.r(C)p.r(G)p.r(G)p.r(A)p.r(G)p.r(A)p.r(G)p.r(U)p.r(U)p.r(C)p.m(U)p.r(A)p.r(C)p.r(U)p.r(C)p.r(U)p.r(T)p.r(T)}|RNA2{r(A)p.r(G)p.r(A)p.r(G)p.m(U)p.r(A)p.r(G)p.r(A)p.r(A)p.r(C)p.r(U)p.r(C)p.r(U)p.r(C)p.r(C)p.r(G)p.r(A)p.r(G)p.r(G)p.r(T)p.r(T)}$$$RNA1{StrandType:ss}|RNA2{StrandType:as}$	false (0)
RNA1{r(G)p.r(A)p.r(A)p.m(U)p.r(A)p.r(A)p.r(C)p.r(C)p.r(U)p.r(G)p.r(A)p.r(A)p.r(C)p.r(G)p.r(U)p.m(C)p.r(A)p.r(C)p.r(C)p.r(T)p.r(T)}|RNA2{r(G)p.r(G)p.r(U)p.r(G)p.r(A)p.r(C)p.r(G)p.r(U)p.r(U)p.m(C)p.r(A)p.r(G)p.r(G)p.r(U)p.r(U)p.r(A)p.r(U)p.r(U)p.r(C)p.r(T)p.r(T)}$$$RNA1{StrandType:ss}|RNA2{StrandType:as}$	true (1)
